Every entry's value here was drawn from patent US11331299B2.

ASSAY_SYSTEM: hSMYD2 (Homo sapiens)
Sequence (Q9NRG4 whole entry): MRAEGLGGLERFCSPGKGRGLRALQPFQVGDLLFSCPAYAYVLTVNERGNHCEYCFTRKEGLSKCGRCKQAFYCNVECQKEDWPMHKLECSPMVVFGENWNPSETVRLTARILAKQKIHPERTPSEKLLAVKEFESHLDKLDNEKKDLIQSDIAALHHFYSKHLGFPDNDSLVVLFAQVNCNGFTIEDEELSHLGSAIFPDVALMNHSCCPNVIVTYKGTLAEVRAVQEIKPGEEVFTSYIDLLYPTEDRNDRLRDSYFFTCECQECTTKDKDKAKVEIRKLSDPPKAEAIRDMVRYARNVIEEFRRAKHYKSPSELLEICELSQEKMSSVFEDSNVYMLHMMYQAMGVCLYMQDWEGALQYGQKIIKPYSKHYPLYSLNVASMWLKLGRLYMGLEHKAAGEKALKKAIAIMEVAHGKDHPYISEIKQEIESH
TEST_NAME: Epigenetic enzyme assay, Methyltransferases (MTs)
Type: biochemical
PROTOCOL_CONDITIONS: read-out: Reference IC50
EXPERIMENTAL_READOUT: pIC50
Remember, pIC50 is on a log scale: it is -log10 of the molar concentration.

Which pIC50 reading was recorded for the molecule Nc1ncnc2c1ncn2[C@@H]1O[C@H](CSCC[C@H](N)C(=O)O)[C@@H](O)[C@H]1O ?
6.80

* * *

Test system: 280 human cancer cell lines
TEST_NAME: OncoPanel cell proliferation assay (10-day)
Type: cell-based
PROTOCOL_CONDITIONS: Homo sapiens, OE19, OE19, Head and Neck; read-out: Cell Count EC50
EXPERIMENTAL_READOUT: EC50 (µM)
Dear colleague, please return just the value in µM, with no unit written.

CC(C)=CCC[C@H](C)[C@@H]1CC[C@@H](C)c2c1cc(C)c(O)c2O [Compound 4, 7,8-dihydroxyserrulat-14-ene] : 20.7

Which EC50 reading was recorded for the compound CC(C)=CCC[C@H](CO)[C@@H]1CC[C@@H](C)c2c1cc(C)c(O)c2O [Compound 1, 7,8,18-trihydroxyserrulat-14-ene] ?
3.23
